System: HCT116 cells overexpressing the nitroreductase NfsA from E. coli
Assay: Inhibition of cell proliferation, low cell density IC50 assay
Assay type: cell-based, human
Conditions: Homo sapiens, HCT-116; 4 hour drug exposure, washing and regrowth for 5 days
observable: pIC50
Interpret pIC50 as the negative base-10 log of the concentration measured in mol/L.

O=C(Cn1ccnc1[N+](=O)[O-])NCC(F)(F)C(F)(F)F [Compound 15] | 6.00
O=C(Cn1cnc([N+](=O)[O-])c1)NCC(F)(F)C(F)(F)F [Compound 93] | 4.84
Cc1ncc([N+](=O)[O-])n1CC(=O)NCC(F)(F)C(F)(F)F [Compound 67] | 4.72
O=[N+]([O-])c1cn(Cc2cn(C(CO)CF)nn2)cn1 (centres unmarked) [Compound 97] | 3.75

Next, consider the following compound.
**Q:** What does the record list as pIC50 for O=[N+]([O-])c1nccn1Cc1cn(C(CO)CF)nn1 (centres unmarked) [Compound 19, reference compound] ?
**A:** 4.80
